FYI, the data here is from patent US12077503B2.

system: corn (Zea mays); test: Test A postemergence; type: in vivo; conditions: Zea mays, post-emergence, 240 h, 125 g ai/ha, Postemergence, visual rating about 10 d after treatment; read-out: Corn plant response rating (0 to 100 scale)
Observed property: plant injury at 125 g/ha (%)
Your answer is read as %, so omit the unit and give the number.

What does the record list as plant injury at 125 g/ha for CS(=O)(=O)c1ccccc1NC(=O)[C@H]1C(=O)NC[C@@H]1c1ccc2c(c1)CCO2 [Compound 1320] ?
0

What does the record list as plant injury at 125 g/ha for CN1C[C@H](c2ccc(OC(F)F)cc2)[C@@H](C(=O)Nc2ccccc2F)C1=O [Compound 1371] ?
40

What does the record list as plant injury at 125 g/ha for COc1cc([C@H]2CN(C)C(=O)[C@@H]2C(=O)Nc2ccccc2SC)ccc1F [Compound 1301] ?
0
